# Test system: NCI-H2405 (Lung Adenocarcinoma)
# PROTOCOL TEXT: combination Emax (second highest fraction inhibited in the dose matrix, 72 h); higher = more inhibition; extreme values may be limits of the assay
combination Emax overview
Provide a numeric answer; units are not to be included.

Below, 5 molecules whose answers are already recorded.
Prompt: Fill in: combination Emax of CC1(C)CCC(CN2CCN(c3ccc(C(=O)NS(=O)(=O)c4ccc(NCC5CCOCC5)c([N+](=O)[O-])c4)c(Oc4cnc5[nH]ccc5c4)c3)CC2)=C(c2ccc(Cl)cc2)C1 [Venetoclax] + Cc1cc2ncnn2cc1Nc1ncc2c(n1)n(C1CCOCC1)c(=O)n2C [AZD7648] (first compound max 1 µM, 7x7, partner max 10 µM) is ___
Response: 0.103

Prompt: Lookup CCN(CCO)CCCOc1ccc2c(Nc3cc(CC(=O)Nc4cccc(F)c4)[nH]n3)ncnc2c1 [AZD2811] + O=C(c1cc(Cc2n[nH]c(=O)c3ccccc23)ccc1F)N1CCN(C(=O)C2CC2)CC1 [Olaparib] (first compound max 1 µM, 7x7, partner max 10 µM)
Response: 0.234

Prompt: Cool, now CC(=O)c1c(C)c2cnc(Nc3ccc(N4CCNCC4)cn3)nc2n(C2CCCC2)c1=O [Palbociclib] + Cc1c2c(nn1C)CSCc1cc(n(C)n1)CSc1cc(c3ccccc3c1)OCCCc1c(C(=O)O)n(C)c3c-2c(Cl)ccc13 [AZD5991] (first compound max 10 µM, 7x7, partner max 1 µM)
Response: 0.269

Prompt: Same read-out for CCN(CCO)CCCOc1ccc2c(Nc3cc(CC(=O)Nc4cccc(F)c4)[nH]n3)ncnc2c1 [AZD2811] + C[C@@H]1COCCN1C2=NC(=NC(=C2)C3(CC3)[S@](=N)(=O)C)C4=C5C=CNC5=NC=C4 [AZD6738] (first compound max 1 µM, 7x7, partner max 10 µM) ?
Response: 0.26

Prompt: Repeat with NC1(C(=O)N[C@@H](CCO)c2ccc(Cl)cc2)CCN(c2ncnc3[nH]ccc23)CC1 [Capivasertib] + COc1nnc2ccc(N3CCC(c4ccc(OCCN5CCN(C)C(=O)[C@H]5C)cc4)CC3)nn12 [AZD5153] (first compound max 10 µM, 7x7, partner max 1 µM)
Response: 0.481

Further cases:
Prompt: Requested field: combination Emax. Item: COc1cccc2c1C(=O)c1c(O)c3c(c(O)c1C2=O)C[C@@](O)(C(=O)CO)C[C@@H]3O[C@H]1C[C@H](N)[C@H](O)[C@H](C)O1 [Doxorubicin] + Cc1cc2ncnn2cc1Nc1ncc2c(n1)n(C1CCOCC1)c(=O)n2C [AZD7648] (first compound max 1 µM, 7x7, partner max 10 µM)
Response: 0.201

Prompt: Quick one: CC1(C)CCC(CN2CCN(c3ccc(C(=O)NS(=O)(=O)c4ccc(NCC5CCOCC5)c([N+](=O)[O-])c4)c(Oc4cnc5[nH]ccc5c4)c3)CC2)=C(c2ccc(Cl)cc2)C1 [Venetoclax] + C[C@@H](Nc1cc(F)cc(F)c1)c1cc(C(=O)N(C)C)cc2c(=O)cc(N3CCOCC3)oc12 [AZD8186] (first compound max 1 µM, 7x7, partner max 3 µM)
Response: 0.0892

====

# System: GOTO (Neuroblastoma)
# PROTOCOL TEXT: combination Emax (second highest fraction inhibited in the dose matrix, 72 h); higher = more inhibition; extreme values may be limits of the assay
Known combination Emax of a selection of compounds
Simply state the number, no unit and no words.

As a guide, the following entries are already answered.
Prompt: Which combination Emax is listed for Cc1cc2ncnn2cc1Nc1ncc2c(n1)n(C1CCOCC1)c(=O)n2C [AZD7648] + C[C@@H]1COCCN1C2=NC(=NC(=C2)C3(CC3)[S@](=N)(=O)C)C4=C5C=CNC5=NC=C4 [AZD6738] (first compound max 10 µM, 7x7, partner max 10 µM) ?
Response: 0.889

Prompt: Ok, now Cc1c2c(nn1C)CSCc1cc(n(C)n1)CSc1cc(c3ccccc3c1)OCCCc1c(C(=O)O)n(C)c3c-2c(Cl)ccc13 [AZD5991] + CC1(C)CCC(CN2CCN(c3ccc(C(=O)NS(=O)(=O)c4ccc(NCC5CCOCC5)c([N+](=O)[O-])c4)c(Oc4cnc5[nH]ccc5c4)c3)CC2)=C(c2ccc(Cl)cc2)C1 [Venetoclax] (first compound max 1 µM, 7x7, partner max 1 µM)
Response: 0.795

Lab note: next compound to report on.
Prompt: Find the recorded combination Emax belonging to Cc1c2c(nn1C)CSCc1cc(n(C)n1)CSc1cc(c3ccccc3c1)OCCCc1c(C(=O)O)n(C)c3c-2c(Cl)ccc13 [AZD5991] + C[C@@H]1COCCN1C2=NC(=NC(=C2)C3(CC3)[S@](=N)(=O)C)C4=C5C=CNC5=NC=C4 [AZD6738] (first compound max 1 µM, 7x7, partner max 10 µM) and report it.
Response: 0.92

====

# Test system: NCI-N87 (Gastric Carcinoma)
# PROTOCOL TEXT: combination Emax (second highest fraction inhibited in the dose matrix, 72 h); higher = more inhibition; extreme values may be limits of the assay
Quick reference: combination Emax of the listed items.

Consider the following illustrative entries.
Prompt: Value lookup for combination Emax; key = C[C@@H](Oc1cc(-c2cnn(C3CCNCC3)c2)cnc1N)c1c(Cl)ccc(F)c1Cl [Crizotinib] + CC1=C(C(=CC=C1)Cl)NC(=O)C2=CN=C(S2)NC3=CC(=NC(=N3)C)N4CCN(CC4)CCO [Dasatinib] (first compound max 10 µM, 7x7, partner max 2 µM)
Response: 0.607

Prompt: Similarly, NC1(C(=O)N[C@@H](CCO)c2ccc(Cl)cc2)CCN(c2ncnc3[nH]ccc23)CC1 [Capivasertib] + CC(C)n1c(=O)n(C)c2cnc3cc(F)c(-c4ccc(OCCCN5CCCCC5)nc4)cc3c21 [AZD1390] (first compound max 10 µM, 7x7, partner max 0.3 µM) ?
Response: 0.674

Prompt: Subsequent entry: COc1cccc(OCCCN)c1-c1cc(Nc2cnc(C#N)cn2)n[nH]1 [Prexasertib] + Cc1cc2ncnn2cc1Nc1ncc2c(n1)n(C1CCOCC1)c(=O)n2C [AZD7648] (first compound max 1 µM, 7x7, partner max 10 µM)
Response: 0.776

Prompt: And for CS(=O)(=O)CCNCc1ccc(-c2ccc3ncnc(Nc4ccc(OCc5cccc(F)c5)c(Cl)c4)c3c2)o1 [Lapatinib] + C[C@@H](Oc1cc(-c2cnn(C3CCNCC3)c2)cnc1N)c1c(Cl)ccc(F)c1Cl [Crizotinib] (first compound max 10 µM, 7x7, partner max 10 µM) ?
Response: 0.978

Prompt: Same lookup for CC1(C)CCC(CN2CCN(c3ccc(C(=O)NS(=O)(=O)c4ccc(NCC5CCOCC5)c([N+](=O)[O-])c4)c(Oc4cnc5[nH]ccc5c4)c3)CC2)=C(c2ccc(Cl)cc2)C1 [Venetoclax] + CCN(CCO)CCCOc1ccc2c(Nc3cc(CC(=O)Nc4cccc(F)c4)[nH]n3)ncnc2c1 [AZD2811] (first compound max 1 µM, 7x7, partner max 1 µM) , please.
Response: 0.242

***
Prompt: # get_value(readout='combination Emax', item= Cc1c2c(nn1C)CSCc1cc(n(C)n1)CSc1cc(c3ccccc3c1)OCCCc1c(C(=O)O)n(C)c3c-2c(Cl)ccc13 [AZD5991] + C[C@@H](Nc1cc(F)cc(F)c1)c1cc(C(=O)N(C)C)cc2c(=O)cc(N3CCOCC3)oc12 [AZD8186] (first compound max 1 µM, 7x7, partner max 3 µM) )
Response: 0.442

Prompt: Then this compound: C[C@@H](Nc1cc(F)cc(F)c1)c1cc(C(=O)N(C)C)cc2c(=O)cc(N3CCOCC3)oc12 [AZD8186] + CC(=O)c1c(C)c2cnc(Nc3ccc(N4CCNCC4)cn3)nc2n(C2CCCC2)c1=O [Palbociclib] (first compound max 10 µM, 7x7, partner max 10 µM)
Response: 0.656

====

# Tested on: PFSK-1 (Other Solid Carcinomas)
# PROTOCOL TEXT: combination Emax (second highest fraction inhibited in the dose matrix, 72 h); higher = more inhibition; extreme values may be limits of the assay
Reported combination Emax values for a set of compounds
Give your answer as a number; write no unit.

Consider the following illustrative entries.
Prompt: Name the recorded combination Emax for NC1(C(=O)N[C@@H](CCO)c2ccc(Cl)cc2)CCN(c2ncnc3[nH]ccc23)CC1 [Capivasertib] + COc1nnc2ccc(N3CCC(c4ccc(OCCN5CCN(C)C(=O)[C@H]5C)cc4)CC3)nn12 [AZD5153] (first compound max 10 µM, 7x7, partner max 1 µM) .
Response: 0.581

Prompt: What about this compound? CN(CCO)CC[C@H](CSc1ccccc1)Nc1ccc(S(=O)(=O)NC(=O)c2ccc(N3CCC([C@@H](O)c4ccccc4-c4ccc(Cl)cc4)CC3)cc2)cc1S(=O)(=O)C(F)(F)F [AZD4320] + C1CN(CCC1(C(=O)N[C@@H](CCO)C2=CC=C(C=C2)Cl)N)C3=NC=NC4=C3C=CN4 [Capivasertib] (first compound max 1 µM, 7x7, partner max 3 µM)
Response: 0.568

--- query ---
Prompt: What does the record list as combination Emax for CN(CCO)CC[C@H](CSc1ccccc1)Nc1ccc(S(=O)(=O)NC(=O)c2ccc(N3CCC([C@@H](O)c4ccccc4-c4ccc(Cl)cc4)CC3)cc2)cc1S(=O)(=O)C(F)(F)F [AZD4320] + Cn1cnc2c(F)c(Nc3ccc(Br)cc3Cl)c(C(=O)NOCCO)cc21 [Selumetinib] (first compound max 1 µM, 7x7, partner max 3 µM) ?
Response: 0.419

Values from the supplement of paper PMC11061612
